assay: Cytotoxicity assay on WI38 cells; type: cell-based, human; details: human, WI38 cells (human embryonic lung fibroblasts)
Record form. Attribute: CC50 at 2 days. Fill in for each entry.
# output: bare number, implied unit µM

Fill blank: measured CC50 at 2 days of the compound CCCCCCCNCC(O)Cn1c2ccc(Cl)cc2c2cc(Cl)ccc21 (centres unmarked) is ____.
5.14

Consider the compound shown here: CCCCCCNCC(O)Cn1c2ccc(Cl)cc2c2cc(Cl)ccc21 (centres unmarked) What is its recorded CC50 at 2 days?
5.92

For the compound CCCCNC[C@@H](O)Cn1c2ccc(Cl)cc2c2cc(Cl)ccc21 [(R)-7] , what CC50 at 2 days is on record?
7.69

Record request: CC50 at 2 days value, item CCCCNC[C@H](O)Cn1c2ccc(Cl)cc2c2cc(Cl)ccc21 [(S)-7]
9.34

Please give the measured CC50 at 2 days for this compound: CCCCCCCCNCC(O)Cn1c2ccc(Cl)cc2c2cc(Cl)ccc21 (centres unmarked)
3.77
